measured.on: Ubiquitin carboxyl-terminal hydrolase 17-like protein 5 (Homo sapiens)
assay.notes: inhibitors of human USP17 deubiquitinase (AID 1645855)
assay.context: purified USP17, Ub-rhodamine cleavage fluorescence, 3 h; at 50 µM
Hit rate of the full screen: of about 47,000 compounds, about 3,100 (6.6%) were called active. Cut-off read from the data, not from the text of the source: active = inhibition above about 30%; inactive = the rest. The list comes from a sample in which actives are over-represented; it also holds close analogues and randomly drawn compounds.
Classes used: label 1 (active), label 0 (inactive)

[
  {
    "cpd.smiles": "COc1ccc2[nH]cc(CCNC(=O)Cc3csc(-c4cc(OC)c(OC)c(OC)c4)n3)c2c1",
    "assigned.label": "label 0"
  },
  {
    "cpd.smiles": "COc1cccc([C@@H]2C[C@]3(C)NC(=O)CCCC[C@@H]3N2C(=O)c2cnn(C)c2)c1",
    "assigned.label": "label 0"
  },
  {
    "cpd.smiles": "CCN(CC)c1ccc(NC(=O)Nc2ccc(OCc3ccccc3)cc2)cc1",
    "assigned.label": "label 0"
  },
  {
    "cpd.smiles": "Cc1cc(-c2cncnc2-c2ccc(CNC(=O)Cc3ccccc3C)cc2)on1",
    "assigned.label": "label 0"
  },
  {
    "cpd.smiles": "CC(C)Cc1nc2sc3c(NCc4ccco4)ncnc3c2c2c1CCC2",
    "assigned.label": "label 1"
  },
  {
    "cpd.smiles": "CC(C)Cc1nc2sc3c(N(CCO)Cc4ccccc4)ncnc3c2c2c1COC(C)(C)C2",
    "assigned.label": "label 0"
  },
  {
    "cpd.smiles": "Cc1ccc(NS(=O)(=O)c2cc3n(c2)CCCNC3=O)c(F)c1",
    "assigned.label": "label 0"
  },
  {
    "cpd.smiles": "O=C1CCC(=O)N(O)CCCCCNC(=O)CCC(=O)N(O)CCCCCNC(=O)CCC(=O)N(O)CCCCCN1",
    "assigned.label": "label 0"
  },
  {
    "cpd.smiles": "O=C(Cn1cccc(S(=O)(=O)N2CCCC2)c1=O)Nc1ccccc1",
    "assigned.label": "label 0"
  },
  {
    "cpd.smiles": "Cc1ccc(-c2nc3c4c(C)c(C)n(-c5cccnc5)c4ncn3n2)cc1",
    "assigned.label": "label 0"
  }
]

---

# maps each entry to its inhibition
measured.on: Ubiquitin carboxyl-terminal hydrolase 17-like protein 5 (Homo sapiens)
assay.notes: inhibitors of human USP17 deubiquitinase (AID 1645855)
assay.context: purified USP17, Ub-rhodamine cleavage fluorescence, 3 h; at 50 µM; active compounds read high
Among all 47,000 compounds or so, about 3,100 (6.6%) were called active. The entries come from a sample that favours actives as a whole.

[
  {
    "compound": "Cc1ccccc1NC(=O)CSc1nnc(C2CC2)n1Cc1ccccc1",
    "inhibition, %": -1.39
  },
  {
    "compound": "O=C1N[C@H]2OCCC[C@H]2[C@H](c2ccccc2C(=O)O)N1",
    "inhibition, %": -6.46
  },
  {
    "compound": "Clc1cc2nc(N3CCN(c4ccccn4)CC3)c3nncn3c2cc1Cl",
    "inhibition, %": 31.5
  },
  {
    "compound": "Cn1c(=O)c2c(SCC(=O)N3CCC(Cc4ccccc4)CC3)nc(-c3cccs3)nc2n(C)c1=O",
    "inhibition, %": 2.08
  },
  {
    "compound": "C[C@]12C(=O)N(c3cccc(C(=O)NCCN4CCOCC4)c3)C(=O)N1CCc1c2[nH]c2ccccc12",
    "inhibition, %": -24.6
  },
  {
    "compound": "Cc1ccn2cc(-c3ccc(NS(=O)(=O)c4cc(C)c(C)cc4C)cc3)nc2n1",
    "inhibition, %": -32.9
  },
  {
    "compound": "O=C(Nc1ccc(-c2nc3cnccc3o2)c(O)c1)c1ccc(-c2ccccc2)cc1",
    "inhibition, %": 2.32
  },
  {
    "compound": "COc1cc(CNc2nn[nH]n2)ccc1OCc1ccc(C)cc1",
    "inhibition, %": 5.1
  },
  {
    "compound": "COc1ccccc1CN1C(=O)c2cc3occc3n2CC1(C)C(=O)NC1CCCCC1 (configuration not stated)",
    "inhibition, %": 6.42
  },
  {
    "compound": "O=C(c1ccc(N2CCCC2)nn1)N1CCN(c2ccccn2)CC1",
    "inhibition, %": -6.98
  },
  {
    "compound": "O=C(CSc1nccn1C1CCCCC1)Nc1ccccc1F",
    "inhibition, %": 20.2
  },
  {
    "compound": "Cc1nc(SCC#N)c2oc3ccccc3c2n1",
    "inhibition, %": 60.3
  },
  {
    "compound": "COc1ccc2[nH]c3c(c2c1)CCN1C(=O)N([C@@H](C)C(=O)NCC(=O)O)C(=O)[C@]31C",
    "inhibition, %": 9.34
  },
  {
    "compound": "Cc1ccc(C)c(S(=O)(=O)N2CCC(c3nc(C(=O)N(C)C)c(C)o3)CC2)c1",
    "inhibition, %": -7.71
  },
  {
    "compound": "Cc1nn(-c2ccccc2)c(C)c1S(=O)(=O)N1CCN(c2ccccn2)CC1",
    "inhibition, %": -17.2
  },
  {
    "compound": "CCn1c(SCc2cccc(C)c2)nnc1-c1cnccn1",
    "inhibition, %": 10.7
  },
  {
    "compound": "Cc1ccc(Cn2cc(-c3noc(-c4ccc[nH]4)n3)nn2)cc1",
    "inhibition, %": 0.022
  },
  {
    "compound": "CS(=O)(=O)c1cnc(N2CCCCC2)nc1C1CCN(C(=O)CCc2ccco2)CC1",
    "inhibition, %": 5.15
  },
  {
    "compound": "O=C(NCCc1ccc(F)cc1)N1CC[C@@H]2CN(Cc3ccncc3)S(=O)(=O)[C@@H]2CC1",
    "inhibition, %": -15.9
  },
  {
    "compound": "COc1ccccc1CNC(=O)C1CCN(S(C)(=O)=O)c2ccccc2O1 (configuration not stated)",
    "inhibition, %": 1.45
  },
  {
    "compound": "CC(Oc1ccccc1)C(=O)Nc1ccc(-c2cn3cccnc3n2)cc1 (configuration not stated)",
    "inhibition, %": 41.4
  },
  {
    "compound": "CCC(C(=O)Nc1ccc(-c2cn3cccnc3n2)cc1)c1ccccc1 (configuration not stated)",
    "inhibition, %": 45.8
  },
  {
    "compound": "CCCN1CCN(c2ccc(C(=O)O)cc2NS(=O)(=O)c2cc(F)ccc2F)CC1",
    "inhibition, %": 10.4
  },
  {
    "compound": "COc1cc(C(=O)Nc2ccc(-c3nc4cnccc4o3)cc2)cc(OC)c1OC",
    "inhibition, %": -3.38
  },
  {
    "compound": "O=C(CN1CC(=O)c2ccccc2S1(=O)=O)Nc1ccccc1",
    "inhibition, %": -5.61
  },
  {
    "compound": "O=C(NCCc1ccccc1)c1cc2c(s1)CS(=O)(=O)C2",
    "inhibition, %": 6.74
  },
  {
    "compound": "COc1ccc(CCNC(=O)c2ccccc2OCc2ccc(F)cc2)cc1",
    "inhibition, %": 16.7
  },
  {
    "compound": "O=C(Nc1ccc(-c2nc3cccnc3s2)cc1)C(c1ccccc1)c1ccccc1",
    "inhibition, %": -146
  },
  {
    "compound": "O=C(Cc1ccccc1)Nc1ccc(-c2nc3cnccc3o2)c(O)c1",
    "inhibition, %": 63.3
  },
  {
    "compound": "O=S(=O)(Nc1ccc(Cc2ccncc2)cc1)c1ccc2c(c1)OCCO2",
    "inhibition, %": 3.72
  },
  {
    "compound": "CC1(C(=O)NC2CCCC2)Cn2c(cc3ccccc32)C(=O)N1c1ccc(F)cc1 (configuration not stated)",
    "inhibition, %": 62.5
  },
  {
    "compound": "CC(C)Oc1ccc(CNC(=O)C2CCCN(c3ccc(N4CCOCC4)nn3)C2)cc1 (configuration not stated)",
    "inhibition, %": -6.08
  },
  {
    "compound": "CCc1cccc(C)c1NC(=O)C1=Cc2cc(OC)ccc2OC1",
    "inhibition, %": -6.4
  },
  {
    "compound": "COc1cccc(Cc2cncc(C(=O)N3CCNC(=O)C3)c2)c1",
    "inhibition, %": 6.62
  },
  {
    "compound": "Cc1ccc(N2CC(c3nnc(NC(=O)CCCc4ccccc4)s3)CC2=O)cc1 (configuration not stated)",
    "inhibition, %": -6.98
  },
  {
    "compound": "COc1ccc(CN=C2NS(=O)(=O)C(c3ccc(F)cc3)=C2C)cc1OC",
    "inhibition, %": 66.4
  },
  {
    "compound": "CC(C)CCNC(=O)C1(C)Cn2c(cc3ccccc32)C(=O)N1Cc1ccccc1F (configuration not stated)",
    "inhibition, %": -0.678
  },
  {
    "compound": "Cc1sc(NC(=O)CCc2ccccc2)nc1-c1ccc2c(c1)N(C)C(=O)CO2",
    "inhibition, %": -15.7
  },
  {
    "compound": "CC(=O)c1ccc(NC(=O)C(C)Sc2nnc(COc3ccc(C)cc3)n2Cc2ccccc2)cc1 (configuration not stated)",
    "inhibition, %": 7.66
  },
  {
    "compound": "COc1cccc(C(=O)NCc2ccc(-c3nc4cnccc4o3)cc2)c1",
    "inhibition, %": 25.2
  },
  {
    "compound": "COc1ccc(-c2ccc(CCC(=O)NCc3ccccc3)o2)cc1",
    "inhibition, %": 34.6
  },
  {
    "compound": "Cc1nc(SCc2ccc([N+](=O)[O-])cc2)c2oc3ccccc3c2n1",
    "inhibition, %": 12.4
  }
]
